Compiled record: IC50 values for RAC-gamma serine/threonine-protein kinase (Homo sapiens) across several sources.

>>> print(df.to_string())
                           molecular_string  quantity_name  measured
0  NC[C@H](Cc1cccc(F)c1)NC(=O)c1cc2c(s1)C(F)(F)CCn1ncc(Cl)c1-2           IC50  0.108 µM
1               c1ccc(Nc2ccnc3[nH]ccc23)cc1           IC50   ≤ 10 µM
2  Cn1ncc(COCC2CC2)c1-c1ccc2c(c1)CN([C@H](CN)Cc1cccc(F)c1)C2=O           IC50  < 0.5 µM
3  CNC(=O)c1ccc(-c2cnn(C)c2-c2ccc3c(c2)CN([C@H](CN)Cc2cccc(F)c2)C3=O)cn1           IC50    > 5 µM
4  NCc1ccc(-c2nc3c(cc2-c2ccccc2)N(CC2CC2)C(=O)CO3)cc1           IC50   > 10 µM
5          c1ccc2sc(-c3ccnc4[nH]ccc34)cc2c1           IC50   ≤ 10 µM
6  Cn1cc(-c2cccc(C[C@@H](CN)N3Cc4cc(-c5ccnn5C)ccc4C3=O)c2)cn1           IC50    > 5 µM
7  NC(=O)CN1C(=O)COc2nc(-c3ccc(C4(N)CCC4)cc3)c(-c3ccccc3)cc21           IC50   > 10 µM

// next item, IC50 requested
I'm curious: which IC50 was measured for N#CCCN1C(=O)COc2nc(-c3ccc(C4(N)CCC4)cc3)c(-c3ccccc3)cc21 tested on RAC-gamma serine/threonine-protein kinase (Homo sapiens)? 1 to 10 µM
